- Target or system: acetylcholinesterase (AChE) isolated from Electrophorus electricus (Electrophorus electricus, UniProt O42275)
- Construct: AChE isolated from Electrophorus electricus; from tissue
- Sequence (O42275 24-633): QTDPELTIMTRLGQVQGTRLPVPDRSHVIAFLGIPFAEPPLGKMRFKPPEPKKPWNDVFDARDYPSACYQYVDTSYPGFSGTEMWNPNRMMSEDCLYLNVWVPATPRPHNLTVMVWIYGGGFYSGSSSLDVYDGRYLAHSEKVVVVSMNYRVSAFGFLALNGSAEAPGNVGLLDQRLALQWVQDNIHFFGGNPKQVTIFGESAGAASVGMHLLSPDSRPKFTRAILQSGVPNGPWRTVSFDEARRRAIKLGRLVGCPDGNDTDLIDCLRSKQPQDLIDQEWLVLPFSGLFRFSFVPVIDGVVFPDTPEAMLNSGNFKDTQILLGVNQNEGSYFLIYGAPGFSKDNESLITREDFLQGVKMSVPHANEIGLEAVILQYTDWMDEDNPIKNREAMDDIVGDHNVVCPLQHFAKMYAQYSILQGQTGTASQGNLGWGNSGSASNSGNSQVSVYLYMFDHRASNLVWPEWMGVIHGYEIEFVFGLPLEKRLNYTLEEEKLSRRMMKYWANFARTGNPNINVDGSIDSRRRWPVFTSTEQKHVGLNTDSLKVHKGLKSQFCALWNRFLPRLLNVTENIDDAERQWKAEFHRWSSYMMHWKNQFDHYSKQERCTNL
- Protocol notes: biochemical
- Condition notes: AChE isolated from Electrophorus electricus; read-out: AChE IC50
Observable: log10 of IC50 (log10 of the value in µM)
Answers are given as log10 of IC50 in µM.

# compound CC(C)C(=O)N[C@H]1CC[C@]23CC24C(=O)C[C@]2(C)[C@@H]([C@H](C)N(C)C)[C@H](O)C[C@@]2(C)[C@@H]4CC[C@H]3[C@]1(C)CS (stereo partly shown) ; its log10 of IC50 = 1.63

# compound CC(=O)O[C@@H]1C[C@@]2(C)[C@@H]3CC[C@@H]4C5(CC[C@H](NC(=O)C(C)C)[C@@]4(C)COS(=O)(=O)c4ccc(C)cc4)C[C@@]35C(=O)C[C@]2(C)[C@H]1[C@H](C)N(C)C (stereo partly shown) ; its log10 of IC50 = 0.64

# compound CC(C)C1=NC2CCC34C[C@]35C(=O)C[C@]3(C)[C@@H]([C@H](C)N(C)C)[C@H](OC(=O)C(C)(C)C)C[C@@]3(C)[C@@H]5CC[C@H]4[C@]2(C)CN1 (stereo partly shown) ; its log10 of IC50 = -1.54

# compound `CC1=N[C@H]2CC=C3C[C@H]4C(=O)C[C@]5(C)[C@@H]([C@H](C)N(C)C)[C@H](O)C[C@@]5(C)[C@@H]4CC[C@H]3[C@]2(C)CO1` ; its log10 of IC50 = -0.17

# compound CC(C)C(=O)N[C@H]1CCC23C[C@]24C(=O)C[C@]2(C)[C@@H]([C@H](C)[N+](C)(C)[O-])[C@H](O)C[C@@]2(C)[C@@H]4CC[C@H]3[C@]1(C)CO (stereo partly shown) ; its log10 of IC50 = 0.15

# compound CC(C)[C@H]1N[C@H]2CCC34C[C@]35C(=O)C[C@]3(C)[C@@H]([C@H](C)N(C)C)[C@H](O)C[C@@]3(C)[C@@H]5CC[C@H]4[C@]2(C)CO1 (stereo partly shown) ; its log10 of IC50 = 0.38

----------
# IC50 annotations
- Target or system: acetylcholinesterase (AChE) isolated from Electrophorus electricus (Electrophorus electricus)
- Construct: AChE isolated from Electrophorus electricus; from tissue
- Protocol notes: biochemical
- Condition notes: AChE isolated from Electrophorus electricus; read-out: AChE IC50

Known results for molecules:
[[record]]
molecule = "C[C@@H]([C@H]1[C@H](O)C[C@@]2(C)[C@@H]3CC[C@@H]4C(=CC[C@H](N)[C@@]4(C)CO)C[C@H]3C(=O)C[C@]12C)N(C)C"
observable = "IC50"
assay_result = "1.5 µM"

[[record]]
molecule = "CC(C)[C@H]1N[C@H]2CC=C3C[C@H]4C(=O)C[C@]5(C)[C@@H]([C@H](C)N(C)C)[C@H](O)C[C@@]5(C)[C@@H]4CC[C@H]3[C@]2(C)CO1"
observable = "IC50"
assay_result = "0.823 µM"

[[record]]
molecule = "CC(C)C(=O)N[C@H]1CCC23C[C@]24C(=O)C[C@]2(C)[C@@H]([C@H](C)N(C)C)[C@H](O[Si](C)(C)C(C)(C)C)C[C@@]2(C)[C@@H]4CC[C@H]3[C@]1(C)CNC([Si](C)(C)C)[Si](C)(C)C (stereo partly drawn)"
observable = "IC50"
assay_result = "> 100 µM"


# molecule CC(=O)OC[C@]1(C)[C@@H](NC(=O)C(C)C)CCC23C[C@]24C(=O)C[C@]2(C)[C@@H]([C@H](C)N(C)C)[C@H](OC(C)=O)C[C@@]2(C)[C@@H]4CC[C@H]31 (stereo partly drawn) ; its IC50 = > 100 µM
